- Target entity: human HER3 endogenously expressed on human cancer cells (SK-Br-3, BT-474, MCF7) (human, UniProt P21860 20-1342)
- Assay notes: cell-based or functional assay
Parameter measured: SK-Br-3 proliferation % inhibition (%)
The response must be a number in % with no trailing unit.

## Task Item MOR13658 (antibody, human IgG1, lambda, V domains shown, Tested as IgG) VH: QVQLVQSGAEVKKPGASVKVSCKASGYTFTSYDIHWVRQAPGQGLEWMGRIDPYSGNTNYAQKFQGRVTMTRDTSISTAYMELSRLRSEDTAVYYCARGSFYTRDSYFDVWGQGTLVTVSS VL: DIALTQPASVSGSPGQSITISCTGTSSDVGTYNQVSWYQQHPGKAPKLMIYGVSKRPSGVSNRFSGSKSGNTASLTISGLQAEDEADYYCASADHSYHTVFGGGTKLTVLG : provide SK-Br-3 proliferation % inhibition
## Result 42
